assay: physchem; settings: aqueous with cosolvent or surfactant or cyclodextrin
MEASURED_ENDPOINT: solubility (mg/mL)

• C=C(C)C(CC=C(C)C)Cc1c(O)cc(OC)c(C(=O)/C=C/c2ccc(O)cc2O)c1O (stereo not shown) = 20

* * *

Lab note: MIC90 readings collected with MRSA SA-ST239 for the following compounds.
MEASURED_ENDPOINT: MIC90 (mg/L)

- COc1ccc2cc3[n+](cc2c1OC)CCc1cc2c(cc1-3)OCO2 [Berberine]: 256
- O=c1cc(-c2ccccc2)oc2cc(O)c(O)c(O)c12 [Baicalein, 5,6,7-trihydroxyflavone]: 128
- O=C(O)c1cc(O)c(O)c(O)c1 [Gallic acid, 3,4,5-trihydroxybenzoic acid]: 256
- C=C(C)C(CC=C(C)C)Cc1c(O)cc(OC)c(C(=O)/C=C/c2ccc(O)cc2O)c1O (stereo not drawn) [Kuraridin]: 8
- O=C(O[C@@H]1Cc2c(O)cc(O)cc2O[C@@H]1c1ccc(O)c(O)c1)c1cc(O)c(O)c(O)c1 [ECG, epicatechin gallate]: 16
